So I've got a bunch of compounds here, and I need their pIC50 values.
Target: Sodium- and chloride-dependent GABA transporter 1 (Mus musculus)
Test: Inhibition of mouse GAT1 expressed in HEK293 cells assessed as decrease in [3H]GABA uptake
Quick note: pIC50 values are minus log10 of concentrations in mol/L.

Ask: Fill in the blank: the reported pIC50 of NCCC(C(=O)NCc1ccc(F)cc1)N1CCC(=C(c2ccccc2)c2ccccc2)CC1 (stereo not given) is ____.
Reply: 4.96

Ask: Record request: pIC50 value, item CN(CCCC(c1ccccc1)c1ccccc1)C(CCN)C(=O)NCc1ccc(F)cc1 (stereo not given)
Reply: 4.78

Ask: So what does the record say about pIC50 for NCCC(C(=O)NCc1ccccc1)N1CCC(=C(c2ccccc2)c2ccccc2)CC1 (stereo not given) ?
Reply: 4.96

Ask: Reported pIC50, compound NCCC(NCCC=C(c1ccccc1)c1ccccc1)C(=O)NCc1ccccc1 (stereo not given) : ____
Reply: 4.51

Ask: Which pIC50 reading was recorded for the compound NCCC(NCCC=C(c1ccccc1)c1ccccc1)C(=O)NCc1ccc(F)cc1 (stereo not given) ?
Reply: 4.56

Ask: Consider the compound shown here: NCCC(C(=O)NCc1ccccc1)N1CCN(C(c2ccccc2)c2ccccc2)CC1 (stereo not given) What is its recorded pIC50?
Reply: 4.35

Ask: Could you share which pIC50 value was measured for Cc1ccc(CNC(=O)C(CCN)NCCC=C(c2ccccc2)c2ccccc2)cc1 (stereo not given) ?
Reply: 4.71

Ask: Tell me the measured pIC50 of NCCC(C(=O)NCc1ccc(Cl)cc1)N1CCN(C(c2ccccc2)c2ccccc2)CC1 (stereo not given) , please.
Reply: 4.59

Ask: Fill blank: measured pIC50 of the compound CN(CCCC(c1ccccc1)c1ccccc1)C(CCN)C(=O)NCc1ccccc1Cl (stereo not given) is ____.
Reply: 4.90

Ask: Entry CN(CCC=C(c1ccccc1)c1ccccc1)C(CCN)C(=O)NCc1ccc(F)cc1 (stereo not given) : reported pIC50 = ?
Reply: 4.86

Ask: Quick one: pIC50 for NCCC(C(=O)NCc1ccccc1)N1CCC(C(c2ccccc2)c2ccccc2)CC1 (stereo not given) ?
Reply: 4.71

Ask: Quick check: pIC50 of NCCC(C(=O)NCc1ccc(Cl)cc1)N1CCC(=C(c2ccccc2)c2ccccc2)CC1 (stereo not given) ?
Reply: 4.96

Ask: Endpoint output: pIC50 of CN(CCC=C(c1ccccc1)c1ccccc1)C(CCN)C(=O)NCc1ccccc1Cl (stereo not given) . Value?
Reply: 4.89

Ask: Returns the measured pIC50 for the input compound. Input: Cc1ccc(CNC(=O)C(CCN)N2CCN(C(c3ccccc3)c3ccccc3)CC2)cc1 (stereo not given)
Reply: 4.55

Ask: Fill blank: measured pIC50 of the compound NCCC(C(=O)NCc1ccccc1Cl)N1CCC(C(c2ccccc2)c2ccccc2)CC1 (stereo not given) is ____.
Reply: 4.86

Ask: Recorded pIC50 for NCCC(C(=O)NCc1ccccc1Cl)N1CCN(C(c2ccccc2)c2ccccc2)CC1 (stereo not given) , please?
Reply: 4.68

Ask: If you can, please state the reported pIC50 value of Cc1ccc(CNC(=O)C(CCN)N2CCC(C(c3ccccc3)c3ccccc3)CC2)cc1 (stereo not given) .
Reply: 4.88

Ask: pIC50 lookup needed for CN(CCC=C(c1ccccc1)c1ccccc1)C(CCN)C(=O)NCc1ccc(Cl)cc1 (stereo not given) , thanks.
Reply: 4.89

Ask: Name the reported pIC50 value associated with the compound NCCC(C(=O)NCc1ccc(Cl)cc1)N1CCC(C(c2ccccc2)c2ccccc2)CC1 (stereo not given)
Reply: 4.95

Ask: Item under review: CN(CCCC(c1ccccc1)c1ccccc1)C(CCN)C(=O)NCc1ccc(Cl)cc1 (stereo not given) . Reported pIC50?
Reply: 4.76

Ask: Need pIC50, item NCCC(NCCC=C(c1ccccc1)c1ccccc1)C(=O)NCc1ccccc1Cl (stereo not given)
Reply: 4.80

Ask: Which value of pIC50 has been reported for Cc1ccc(CNC(=O)C(CCN)N(C)CCCC(c2ccccc2)c2ccccc2)cc1 (stereo not given) in the records?
Reply: 4.91

Ask: Give its pIC50 value. Item: Cc1ccc(CNC(=O)C(CCN)N2CCC(=C(c3ccccc3)c3ccccc3)CC2)cc1 (stereo not given)
Reply: 4.95

Ask: For the compound shown here, NCCC(C(=O)NCc1ccccc1Cl)N1CCC(=C(c2ccccc2)c2ccccc2)CC1 (stereo not given) , give the reported pIC50.
Reply: 4.87

Ask: Find the recorded pIC50 belonging to NCCC(NCCC=C(c1ccccc1)c1ccccc1)C(=O)NCc1ccc(Cl)cc1 (stereo not given) and report it.
Reply: 4.78

Ask: Recorded pIC50 for CN(CCC=C(c1ccccc1)c1ccccc1)C(CCN)C(=O)NCc1ccccc1 (stereo not given) , please?
Reply: 4.73

Ask: Given the entry NCCC(C(=O)NCc1ccc(F)cc1)N1CCN(C(c2ccccc2)c2ccccc2)CC1 (stereo not given) , report its measured pIC50.
Reply: 4.63

Ask: Any idea what its pIC50 is? The compound is NCCC(C(=O)NCc1ccc(F)cc1)N1CCC(C(c2ccccc2)c2ccccc2)CC1 (stereo not given)
Reply: 4.80

Ask: For the compound CN(CCCC(c1ccccc1)c1ccccc1)C(CCN)C(=O)NCc1ccccc1 (stereo not given) , what pIC50 is on record?
Reply: 4.65

Ask: Fill blank: measured pIC50 of the compound Cc1ccc(CNC(=O)C(CCN)N(C)CCC=C(c2ccccc2)c2ccccc2)cc1 (stereo not given) is ____.
Reply: 5.07

###

Target: GABA transporter 2 (Mus musculus)
Sequence (P31651 whole entry): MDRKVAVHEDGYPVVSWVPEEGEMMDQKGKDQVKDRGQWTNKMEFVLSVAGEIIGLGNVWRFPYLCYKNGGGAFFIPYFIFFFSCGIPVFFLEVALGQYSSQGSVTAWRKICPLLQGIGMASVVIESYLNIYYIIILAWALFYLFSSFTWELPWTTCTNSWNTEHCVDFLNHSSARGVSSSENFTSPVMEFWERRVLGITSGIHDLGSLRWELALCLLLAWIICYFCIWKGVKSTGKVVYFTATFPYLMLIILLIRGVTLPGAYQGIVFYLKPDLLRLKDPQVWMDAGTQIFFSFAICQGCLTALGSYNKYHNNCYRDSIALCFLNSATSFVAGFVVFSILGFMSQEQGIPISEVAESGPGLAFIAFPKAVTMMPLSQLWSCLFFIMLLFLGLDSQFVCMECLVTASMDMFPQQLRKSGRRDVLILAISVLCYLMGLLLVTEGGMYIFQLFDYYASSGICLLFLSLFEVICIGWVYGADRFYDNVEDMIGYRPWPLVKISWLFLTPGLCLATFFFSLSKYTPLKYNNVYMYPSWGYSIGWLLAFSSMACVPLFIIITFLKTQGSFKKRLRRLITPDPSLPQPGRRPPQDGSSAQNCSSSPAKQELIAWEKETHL
Experiment: Inhibition of mouse GAT2 expressed in HEK293 cells assessed as decrease in [3H]GABA uptake
pIC50: −log10 of the molar value.
Lab note: anything with pIC50 at or over 5 counts as 1 (yes); the rest go in 0 (no).

Ask: State whether the measured pIC50 reaches 5, counting equality as reaching it, for NCCC(NCCC=C(c1ccccc1)c1ccccc1)C(=O)NCc1ccccc1Cl (stereo not given)
Reply: 1 (yes)

Ask: Would you say Cc1ccc(CNC(=O)C(CCN)N2CCN(C(c3ccccc3)c3ccccc3)CC2)cc1 (stereo not given) shows pIC50 at minimum 5?
Reply: 0 (no)

Ask: Kindly determine if pIC50 recorded for NCCC(C(=O)NCc1ccc(F)cc1)N1CCN(C(c2ccccc2)c2ccccc2)CC1 (stereo not given) is above or exactly 5.
Reply: 0 (no)

Ask: Is it the case that Cc1ccc(CNC(=O)C(CCN)N2CCC(=C(c3ccccc3)c3ccccc3)CC2)cc1 (stereo not given) has pIC50 reaching or exceeding 5?
Reply: 1 (yes)

###

I'd be grateful if you could share measured Ki for these entries.
Biological target: UniProtKB P31648
Assay: Displacement of NO711 from mouse GAT1 expressed in HEK293 cells by LC-MS/MS analysis
Type: cell-based
Answer with a number only, understood to be in µM.

Ask: # Ki lookup, item CN(CCCC(c1ccccc1)c1ccccc1)C(CCN)C(=O)NCc1ccccc1 (centres undefined)
Reply: 30.9

Ask: // query Ki value for entry NCCC(C(=O)NCc1ccccc1Cl)N1CCC(C(c2ccccc2)c2ccccc2)CC1 (centres undefined)
Reply: 25.7

Ask: What does the data say about its Ki? Entry: Cc1ccc(CNC(=O)C(CCN)N2CCC(=C(c3ccccc3)c3ccccc3)CC2)cc1 (centres undefined)
Reply: 29.5

Ask: Look up Ki: CN(CCCC(c1ccccc1)c1ccccc1)C(CCN)C(=O)NCc1ccc(F)cc1 (centres undefined)
Reply: 21.4

Ask: Look at this compound and give its reported Ki. NCCC(C(=O)NCc1ccc(Cl)cc1)N1CCC(C(c2ccccc2)c2ccccc2)CC1 (centres undefined)
Reply: 30.2

Ask: What Ki value was documented for this compound, Cc1ccc(CNC(=O)C(CCN)N(C)CCCC(c2ccccc2)c2ccccc2)cc1 (centres undefined) ?
Reply: 15.5

Ask: Item Cc1ccc(CNC(=O)C(CCN)N(C)CCC=C(c2ccccc2)c2ccccc2)cc1 (centres undefined) has what recorded Ki?
Reply: 9.12

Ask: Which value of Ki has been reported for CN(CCCC(c1ccccc1)c1ccccc1)C(CCN)C(=O)NCc1ccccc1Cl (centres undefined) in the records?
Reply: 21.4

Ask: What measured Ki goes with NCCC(C(=O)NCc1ccccc1)N1CCC(C(c2ccccc2)c2ccccc2)CC1 (centres undefined) ?
Reply: 32.4

###

Target: GABA transporter 4 (Mus musculus)
Sequence (P31650 whole entry): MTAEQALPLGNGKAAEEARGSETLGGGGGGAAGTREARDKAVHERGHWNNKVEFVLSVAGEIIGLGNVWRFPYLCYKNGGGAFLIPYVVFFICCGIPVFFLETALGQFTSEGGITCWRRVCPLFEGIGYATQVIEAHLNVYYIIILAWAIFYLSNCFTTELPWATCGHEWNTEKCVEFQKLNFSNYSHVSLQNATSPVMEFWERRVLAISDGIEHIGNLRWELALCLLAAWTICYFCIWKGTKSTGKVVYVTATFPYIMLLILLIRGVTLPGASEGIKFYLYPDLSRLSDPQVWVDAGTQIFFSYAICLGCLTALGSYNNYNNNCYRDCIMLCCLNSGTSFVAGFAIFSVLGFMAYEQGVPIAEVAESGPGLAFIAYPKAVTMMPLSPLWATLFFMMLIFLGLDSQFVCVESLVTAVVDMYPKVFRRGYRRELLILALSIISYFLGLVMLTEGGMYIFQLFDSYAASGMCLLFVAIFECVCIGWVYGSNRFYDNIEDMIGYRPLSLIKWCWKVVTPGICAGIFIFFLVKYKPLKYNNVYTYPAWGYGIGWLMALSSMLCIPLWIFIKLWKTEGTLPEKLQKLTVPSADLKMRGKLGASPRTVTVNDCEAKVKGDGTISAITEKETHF
Assay: Inhibition of mouse GAT4 expressed in HEK293 cells assessed as decrease in [3H]GABA uptake
Task for the reader: assign each of the following compounds its reported pIC50.
Field pIC50 (float): negative decimal logarithm of the concentration in molar.

Ask: # query: pIC50 | item NCCC(NCCC=C(c1ccccc1)c1ccccc1)C(=O)NCc1ccccc1 (stereo not given) | system: GABA transporter 4 (Mus musculus)
Reply: 4.59

Ask: Item CN(CCC=C(c1ccccc1)c1ccccc1)C(CCN)C(=O)NCc1ccc(Cl)cc1 (stereo not given) with GABA transporter 4 (Mus musculus) - pIC50?
Reply: 4.90

Ask: Given the entry CN(CCCC(c1ccccc1)c1ccccc1)C(CCN)C(=O)NCc1ccc(Cl)cc1 (stereo not given) , what pIC50 was observed with GABA transporter 4 (Mus musculus)?
Reply: 4.84

Ask: Lab note: need pIC50 for NCCC(C(=O)NCc1ccc(Cl)cc1)N1CCN(C(c2ccccc2)c2ccccc2)CC1 (stereo not given) on GABA transporter 4 (Mus musculus), anyone have it?
Reply: 4.92

Ask: pIC50 of Cc1ccc(CNC(=O)C(CCN)N2CCC(C(c3ccccc3)c3ccccc3)CC2)cc1 (stereo not given) on GABA transporter 4 (Mus musculus)?
Reply: 5.13

Ask: Please provide the recorded pIC50 for Cc1ccc(CNC(=O)C(CCN)N2CCC(=C(c3ccccc3)c3ccccc3)CC2)cc1 (stereo not given) , tested on GABA transporter 4 (Mus musculus).
Reply: 4.94

Ask: Look up pIC50 with GABA transporter 4 (Mus musculus) for this compound: CN(CCC=C(c1ccccc1)c1ccccc1)C(CCN)C(=O)NCc1ccc(F)cc1 (stereo not given)
Reply: 4.90

Ask: For the record NCCC(C(=O)NCc1ccccc1Cl)N1CCN(C(c2ccccc2)c2ccccc2)CC1 (stereo not given) , what value of pIC50 is listed for GABA transporter 4 (Mus musculus)?
Reply: 4.82

Ask: Any idea what pIC50 came out for NCCC(C(=O)NCc1ccccc1Cl)N1CCC(=C(c2ccccc2)c2ccccc2)CC1 (stereo not given) on GABA transporter 4 (Mus musculus)?
Reply: 4.96

Ask: Item: NCCC(C(=O)NCc1ccc(F)cc1)N1CCN(C(c2ccccc2)c2ccccc2)CC1 (stereo not given) Test system: GABA transporter 4 (Mus musculus) Read-out: pIC50 Value: ?
Reply: 4.43
